Each recorded value in this set is attributed to patent US10131652B2.

Test system: pigweed (Amaranthus retroflexus)
Assay: Test B pre-/postemergence plant response
Format: in vivo
Settings: Preemergence, 125 g ai/ha; 0 to 100 scale (0 no effect, 100 complete control)
recordedEndpoint: Pigweed plant response rating
In your answer, state the number alone without any accompanying words.

N#Cc1cccc(Oc2ncc(Cl)cn2)c1-c1cc(C(F)(F)F)on1 has a reported Pigweed plant response rating of 100

The reported Pigweed plant response rating of the compound Cn1nc(-c2ccccc2Oc2ncc(Cl)cn2)cc1C(F)(F)F was 0

N#Cc1cccc(Oc2ncc(Cl)cn2)c1-c1cc(C(F)F)on1 has a reported Pigweed plant response rating of 100

Item: FC(F)Oc1cccc(Oc2ncc(Cl)cn2)c1-c1cc(C(F)F)on1 | Pigweed plant response rating: 100

Item: FC(F)(F)COCc1cc(-c2ccccc2Oc2ncc(Cl)cn2)on1 | Pigweed plant response rating: 40

Briefly, Pigweed plant response rating measured for Clc1cnc(Oc2ccccc2-c2ccc(Br)s2)nc1 : 10

Form: compound = O=Cc1cc(-c2ccccc2Oc2ncc(Cl)cn2)co1 ; Pigweed plant response rating = 0

Entry Cn1nc(-c2c(Br)cccc2Oc2ncc(Cl)cn2)cc1C(F)(F)F ; Pigweed plant response rating = 0

* * *

Tested on: ducksalad (Heteranthera limosa)
Test: Test C flooded paddy test plant response
Type: in vivo
Conditions: Flood, 250 g ai/ha; scale of 0 to 100 where 0 is no effect and 100 is complete control; 13 to 15 days
Protocol: Plant species in the flooded paddy test selected from rice (Oryza sativa), small-flower umbrella sedge (Cyperus difformis), ducksalad (Heteranthera limosa), and bamyardgrass (Echinochloa crus-galli) were grown to the 2-leaf stage for testing. […] Treated plants and controls were maintained in a greenhouse for 13 to 15 days, after which time all species were compared to controls and visually evaluated. […]
recordedEndpoint: Ducksalad plant response rating
Please reply with the number alone, leaving off any unit.

// FC(F)(F)Cn1cnc(-c2ccccc2Oc2ncc(Cl)cn2)c1 [Compound 161] : Ducksalad plant response rating value = 0

FC(F)c1cc(-c2c(Cl)cccc2Oc2ncc(Cl)cn2)no1 [Compound 179] has a reported Ducksalad plant response rating of 80

Memo: FC(F)c1cc(-c2c(Cl)cccc2Oc2ncc(Br)cn2)on1 [Compound 121] , reported Ducksalad plant response rating: 90

Entry FC(F)(F)c1ccnc(-c2c(Cl)cccc2Oc2ncc(Cl)cn2)c1 [Compound 159] ; Ducksalad plant response rating = 0

Record Brc1cnc(Oc2ccccc2-c2cc(Br)no2)nc1 [Compound 119] , field Ducksalad plant response rating: 40

* * *

For each record, write down the corresponding Plant response rating, Ragweed.
System: ragweed (common ragweed, Ambrosia elatior)
Test: Test D pre-/postemergence plant response
Format: in vivo
Settings: Postemergence, 125 g ai/ha; scale 0 to 100, 0 no effect, 100 complete control
No unit in the answer, only the number.

Plant response rating, Ragweed measured on Cc1cc(-c2ccccc2Oc2ncc(Cl)cn2)on1 = 60

The recorded Plant response rating, Ragweed for entry Fc1cccc(Oc2ncc(Cl)cn2)c1-c1cc(C(F)(F)F)no1 equals 60

Quick note, Plant response rating, Ragweed for Cc1cc(-c2c(F)cccc2Oc2ncc(Cl)cn2)on1 landed at 60

* * *

Tested on: barnyardgrass (Echinochloa crus-galli)
Experiment: Test B pre-/postemergence plant response
Type: in vivo
Conditions: 31 g ai/ha, Preemergence; 0 to 100 scale where 0 is no effect and 100 is complete control
recordedEndpoint: Plant response rating, Barnyardgrass
Note: the reply should be a number with no unit written.

Record Clc1cnc(Oc2ccccc2-c2cnccn2)nc1 , field Plant response rating, Barnyardgrass: 0

FC(c1cc(-c2ccccc2Oc2ncc(Cl)cn2)no1)C(F)(F)F (stereo not drawn) has a reported Plant response rating, Barnyardgrass of 30

Reported Plant response rating, Barnyardgrass of Brc1cnc(Oc2ccccc2-c2ccsc2)nc1 : 0

Please fill in: Plant response rating, Barnyardgrass reported for C=C(C)c1cc(-c2ccccc2Oc2ncc(Cl)cn2)on1 = 0

Briefly, Plant response rating, Barnyardgrass measured for COc1cccc(Oc2ncc(Cl)cn2)c1-c1cc(C)no1 : 0

Lab note: measured Plant response rating, Barnyardgrass of Clc1cnc(Oc2ccccc2-c2cocn2)nc1 was 0

* * *

Tested on: chamomile (scentless chamomile, Matricaria inodora)
Experiment: Test E pre-/postemergence plant response
Type: in vivo
Conditions: Tripleurospermum inodorum, post-emergence; 125 g ai/ha, Postemergence; scale 0 to 100; read-out: Plant response rating, Chamomile
recordedEndpoint: pest or weed control at 125 g/ha (%)
Write the number in % without appending the unit.

// Fc1cccc(Oc2ncc(Cl)cn2)c1-c1cc(C(F)F)no1 [Compound 144] : pest or weed control at 125 g/ha value = 95

Value of pest or weed control at 125 g/ha reported for the molecule FC(F)c1cc(-c2ccccc2Oc2ncc(Cl)cn2)no1 [Compound 35] is 10

FC(F)c1cc(-c2ccccc2Oc2ncc(Br)cn2)no1 [Compound 62] has a reported pest or weed control at 125 g/ha of 10

* * *

Tested on: lambsquarters (Chenopodium album)
Assay: Test D pre-/postemergence plant response
Format: in vivo
Settings: Postemergence, 125 g ai/ha; scale 0 to 100, 0 no effect, 100 complete control
recordedEndpoint: Plant response rating, Lambsquarters

Plant response rating, Lambsquarters for lambsquarters (Chenopodium album) with input Fc1ccc(Oc2ncc(Cl)cn2)c(-c2cc(C(F)(Cl)Cl)on2)c1 equals 98

# FC(F)(Cl)c1cc(-c2ccccc2Oc2ncc(Cl)cn2)no1 with lambsquarters (Chenopodium album): Plant response rating, Lambsquarters is 100

Entry FC(F)Oc1cccc(Oc2ncc(Cl)cn2)c1-c1cc(C(F)F)on1 , tested on lambsquarters (Chenopodium album), has a reported Plant response rating, Lambsquarters of 100

// Plant response rating, Lambsquarters (lambsquarters (Chenopodium album)) for Cc1cc(-c2ccccc2Oc2ncc(Cl)cn2)on1 = 90

* * *

Exercise: state measured Ragweed plant response rating for each of the molecules provided.
Tested on: ragweed (common ragweed, Ambrosia elatior)
Assay: Test B pre-/postemergence plant response
Assay type: in vivo
Details: Preemergence, 125 g ai/ha; 0 to 100 scale (0 no effect, 100 complete control)
Give only the figure.

Sure, the documented Ragweed plant response rating for CC(=O)c1cc(-c2ccccc2Oc2ncc(Cl)cn2)on1 [Compound 218] is 0

Looking up FC(F)(F)COc1cc(-c2ccccc2Oc2ncc(Cl)cn2)on1 [Compound 176] , I found its Ragweed plant response rating recorded as 0

The measured Ragweed plant response rating associated with Fc1cccc(Oc2ncc(Cl)cn2)c1-c1cc(C(F)(F)F)no1 [Compound 228] reads 30

Reported Ragweed plant response rating of Clc1cnc(Oc2ccccc2-c2ccno2)nc1 [Compound 154] : 0

According to the records, this molecule Cc1csc(-c2c(C#N)cccc2Oc2ncc(Cl)cn2)c1 [Compound 238] displays Ragweed plant response rating of 0

Lab note: CC(C)(F)c1cc(-c2ccccc2Oc2ncc(Cl)cn2)no1 [Compound 236] gave Ragweed plant response rating of 0

Entry Fc1cccc(Oc2ncc(Cl)cn2)c1-c1cc(C2CC2)on1 [Compound 130] ; Ragweed plant response rating = 20

Form field Ragweed plant response rating, entry N#Cc1cccc(Oc2ncc(Cl)cn2)c1-c1cc(C(F)F)on1 [Compound 180] : 50

For record FC(F)(Cl)c1cc(-c2ccccc2Oc2ncc(Cl)cn2)no1 [Compound 143] the listed Ragweed plant response rating is 30

Lab note: measured Ragweed plant response rating of Clc1cnc(Oc2ccccc2-c2cccs2)nc1 [Compound 182] was 0

Cc1cc(-c2c(F)cccc2Oc2ncc(Br)cn2)on1 [Compound 230] has a reported Ragweed plant response rating of 80

Sample FC(F)(F)c1ccnc(-c2c(Cl)cccc2Oc2ncc(Cl)cn2)c1 [Compound 159] ; Ragweed plant response rating observed: 0

The reported Ragweed plant response rating of the molecule Clc1cnc(Oc2ccccc2-c2ccns2)nc1 [Compound 233] was 0

get_value(item= FC(F)(F)c1csc(-c2ccccc2Oc2ncc(Cl)cn2)n1 [Compound 137] , readout=Ragweed plant response rating) returns 0

* * *

Tested on: corn (Zea mays)
Test: Test B pre-/postemergence plant response
Type: in vivo
Conditions: Postemergence, 500 g ai/ha; 0 to 100 scale (0 no effect, 100 complete control)
Outcome label depends on Plant response rating, Corn relative to 10: at/above gives met, below gives not met.

Query: API: above_or_equal(metric=Plant response rating, Corn, cutoff=10) for item FC(F)(F)c1cc(-c2c(I)cccc2Oc2ncc(Cl)cn2)no1
Result: met

Query: Hi team, for Clc1cccc(-c2ccccc2Oc2ncc(Br)cn2)n1 , is the recorded Plant response rating, Corn at or above 10?
Result: not met

Query: Does FC(F)(F)c1cc(-c2c(Br)cccc2Oc2ncc(Cl)cn2)no1 have a reported Plant response rating, Corn of at least 10?
Result: met

Query: API: above_or_equal(metric=Plant response rating, Corn, cutoff=10) for item Clc1cnc(Oc2ccccc2-c2cccs2)nc1
Result: met

Query: Given the entry ON=Cc1cc(-c2ccccc2Oc2ncc(Cl)cn2)no1 , answer whether its Plant response rating, Corn meets or surpasses 10.
Result: not met

Query: Record Cc1cc(-c2ccccc2Oc2ncc(Cl)cn2)on1 ; criterion: Plant response rating, Corn no lower than 10. Met?
Result: met

Query: Quick check, Plant response rating, Corn >= 10? FC(F)(F)c1ccnc(-c2c(Cl)cccc2Oc2ncc(Cl)cn2)c1
Result: met

Query: Would you say Clc1cnc(Oc2ccccc2-c2cccc(Cl)n2)nc1 shows Plant response rating, Corn at minimum 10?
Result: not met

Query: Hi, just wondering whether Cn1nc(C(F)(F)F)cc1-c1ccccc1Oc1ncc(Cl)cn1 shows Plant response rating, Corn of 10 or higher.
Result: not met

Query: State whether the measured Plant response rating, Corn reaches 10, counting equality as reaching it, for Cn1ccnc1-c1ccccc1Oc1ncc(Br)cn1
Result: not met
